Assign pIC50 to each entry below.
target: c-fms (Homo sapiens); test: autophosphorylation, fluorescence polarization competition immunoassay for c-fms inhibition; format: biochemical; conditions: 10 nM c-fms, 1 mM ATP, 5 mM MgCl2, 2% DMSO, 45 min at room temperature; averages of three independent measurements; read-out: c-fins IC50
Sequence (P07333 20-972): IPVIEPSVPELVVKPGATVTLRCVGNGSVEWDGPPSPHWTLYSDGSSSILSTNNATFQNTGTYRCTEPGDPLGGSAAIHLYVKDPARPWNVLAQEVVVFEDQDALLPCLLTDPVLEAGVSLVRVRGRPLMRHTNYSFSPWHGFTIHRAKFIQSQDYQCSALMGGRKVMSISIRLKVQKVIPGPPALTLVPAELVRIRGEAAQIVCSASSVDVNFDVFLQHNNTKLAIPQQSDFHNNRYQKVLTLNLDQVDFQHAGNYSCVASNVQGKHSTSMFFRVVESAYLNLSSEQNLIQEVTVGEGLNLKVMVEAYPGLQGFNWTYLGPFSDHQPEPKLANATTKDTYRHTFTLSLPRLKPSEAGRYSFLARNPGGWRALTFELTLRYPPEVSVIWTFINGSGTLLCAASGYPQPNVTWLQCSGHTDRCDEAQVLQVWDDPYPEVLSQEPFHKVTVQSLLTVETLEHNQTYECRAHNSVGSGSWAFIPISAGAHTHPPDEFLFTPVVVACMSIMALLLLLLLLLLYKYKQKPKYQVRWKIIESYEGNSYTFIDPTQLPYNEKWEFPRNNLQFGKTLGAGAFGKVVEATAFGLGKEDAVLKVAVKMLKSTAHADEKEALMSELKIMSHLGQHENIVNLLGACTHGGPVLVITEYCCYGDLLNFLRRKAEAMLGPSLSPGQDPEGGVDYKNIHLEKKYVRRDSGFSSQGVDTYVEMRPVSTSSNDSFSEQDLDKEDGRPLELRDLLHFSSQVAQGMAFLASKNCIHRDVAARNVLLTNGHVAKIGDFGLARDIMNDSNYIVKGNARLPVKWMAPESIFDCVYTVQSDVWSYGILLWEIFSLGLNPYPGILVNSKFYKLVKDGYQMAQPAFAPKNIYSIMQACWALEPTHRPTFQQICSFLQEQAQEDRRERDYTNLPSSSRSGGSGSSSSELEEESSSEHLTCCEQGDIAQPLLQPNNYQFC
Counter-ions that a name gives are not always drawn.
Here pIC50 is given on a logarithmic scale as minus log10 of the concentration in mol/L.

## Input Looking for the measured pIC50 of Cn1ccnc1CN1CCC(c2ccc(NC(=O)c3nc(C#N)c[nH]3)c(C3=CCCC3)c2)CC1 [Example 23, trifluoroacetic acid salt] , can you help?
## Output 8.18

## Input Thanks! And CN1CCN(c2ccc(NC(=O)c3ccc(C#N)o3)c(C3=CCOCC3)c2)CC1 ?
## Output 7.22

## Input Input N#Cc1c[nH]c(C(=O)Nc2ccc(C3CCNCC3)cc2C2=CCS(=O)(=O)CC2)n1 [Example 36, trifluoroacetic acid salt]
## Output 7.22

## Input Same question, CC1(C)CC=C(c2nc(C3CCN(CCS(C)(=O)=O)CC3)ccc2NC(=O)c2nc(C#N)c[nH]2)CC1 [Example 56, trifluoroacetic acid salt] this time
## Output 9.00

## Input Please answer likewise for O=C(Nc1ccc(C2CCNCC2)cc1C1=CCCCC1)c1nnc[nH]1 [Example 49, bis trifluoroacetic acid salt]
## Output 7.22

## Input Continue with CS(=O)(=O)CCN1CCC(c2ccc(NC(=O)c3nc(C#N)c[nH]3)c(C3=CCCCC3)n2)CC1
## Output 8.15

## Input // same read-out, input: Cc1cscc1-c1cc(N2CCN(C)CC2)ccc1NC(=O)c1ccc(C#N)o1
## Output 6.02

## Input Same thing, different molecule: CNCC(=O)N1CCC(c2ccc(NC(=O)c3nc(C#N)c[nH]3)c(C3=CCCCC3)c2)CC1 [Example 38b]
## Output 8.85
